The reader will find reported kinase still bound, per cent of control values listed item by item below.
Target: ZAP70 (human) (UniProt P43403)
Sequence (P43403 whole entry, looked up): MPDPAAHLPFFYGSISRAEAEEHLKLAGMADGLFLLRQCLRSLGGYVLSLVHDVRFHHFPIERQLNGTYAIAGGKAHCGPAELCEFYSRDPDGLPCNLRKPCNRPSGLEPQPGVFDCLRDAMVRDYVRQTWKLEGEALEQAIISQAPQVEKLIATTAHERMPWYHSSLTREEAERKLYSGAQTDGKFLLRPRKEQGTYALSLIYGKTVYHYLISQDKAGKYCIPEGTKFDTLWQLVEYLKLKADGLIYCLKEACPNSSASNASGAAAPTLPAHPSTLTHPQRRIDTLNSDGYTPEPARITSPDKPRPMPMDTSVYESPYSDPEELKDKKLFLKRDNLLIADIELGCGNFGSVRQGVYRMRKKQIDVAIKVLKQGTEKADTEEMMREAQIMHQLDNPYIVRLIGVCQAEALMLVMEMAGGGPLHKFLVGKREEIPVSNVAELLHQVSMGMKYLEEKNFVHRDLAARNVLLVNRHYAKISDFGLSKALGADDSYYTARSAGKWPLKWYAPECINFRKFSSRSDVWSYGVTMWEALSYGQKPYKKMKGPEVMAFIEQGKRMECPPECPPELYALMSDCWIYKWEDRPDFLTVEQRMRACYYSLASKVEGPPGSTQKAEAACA
Test: KINOMEscan competition binding
Conditions: compound 10.0 µM

[
  {
    "STRUCTURE_AS_SMILES": "NC(=O)Nc1cc(-c2cccc(F)c2)sc1C(=O)N[C@@H]1CCCNC1",
    "kinase still bound, per cent of control [%]": 0
  },
  {
    "STRUCTURE_AS_SMILES": "C=CC(=O)Nc1cc(-n2c(=O)ccc3cnc4ccc(-c5cn[nH]c5)cc4c32)ccc1C",
    "kinase still bound, per cent of control [%]": 48
  },
  {
    "STRUCTURE_AS_SMILES": "COc1cc2ncnc(-n3nc(-c4ccccn4)nc3N)c2cc1OC",
    "kinase still bound, per cent of control [%]": 32
  },
  {
    "STRUCTURE_AS_SMILES": "Cc1n[nH]c2ccc(-c3cncc(OC[C@@H](N)Cc4c[nH]c5ccccc45)c3)cc12",
    "kinase still bound, per cent of control [%]": 100
  },
  {
    "STRUCTURE_AS_SMILES": "O=c1cc(N2CCOCC2)oc2c(-c3cccc4c3sc3ccccc34)cccc12",
    "kinase still bound, per cent of control [%]": 100
  },
  {
    "STRUCTURE_AS_SMILES": "COc1cc(N2CCN(C)CC2)ccc1Nc1ncc2c(n1)N(C)c1ccccc1C(=O)N2C",
    "kinase still bound, per cent of control [%]": 100
  },
  {
    "STRUCTURE_AS_SMILES": "CCN1CCN(C(=O)Cc2ccc(Nc3ncc(F)c(Nc4ccc(C(=O)Nc5ccccc5Cl)cc4)n3)cc2)CC1",
    "kinase still bound, per cent of control [%]": 100
  },
  {
    "STRUCTURE_AS_SMILES": "CCN(CC)CCCCNc1ncc2c(n1)N(C)C(=O)N(c1c(Cl)c(OC)cc(OC)c1Cl)C2",
    "kinase still bound, per cent of control [%]": 100
  },
  {
    "STRUCTURE_AS_SMILES": "CCN(CC)CCCCNc1ncc2cc(-c3cc(OC)cc(OC)c3)c(NC(=O)NC(C)(C)C)nc2n1",
    "kinase still bound, per cent of control [%]": 100
  },
  {
    "STRUCTURE_AS_SMILES": "COc1ccc(N(C(=O)Oc2c(C)cccc2C)c2ccnc(Nc3ccc(N4CCN(C)CC4)cc3)n2)c(OC)c1",
    "kinase still bound, per cent of control [%]": 79
  },
  {
    "STRUCTURE_AS_SMILES": "CN(C)C/C=C/C(=O)Nc1ccc(C(=O)Nc2cccc(Nc3nccc(-c4cccnc4)n3)c2)cc1",
    "kinase still bound, per cent of control [%]": 85
  },
  {
    "STRUCTURE_AS_SMILES": "CNC(=O)c1cc(Oc2ccc(NC(=O)Nc3ccc(Cl)c(C(F)(F)F)c3)cc2)ccn1",
    "kinase still bound, per cent of control [%]": 100
  },
  {
    "STRUCTURE_AS_SMILES": "COc1cc(C(=O)N2CCC(N3CCN(C)CC3)CC2)ccc1Nc1ncc2c(n1)N(C)c1ccccc1C(=O)N2C",
    "kinase still bound, per cent of control [%]": 79
  },
  {
    "STRUCTURE_AS_SMILES": "C=CC(=O)Nc1ccc(CN(C(=O)Nc2c(Cl)c(OC)cc(OC)c2Cl)c2cc(Nc3ccc(N4CCN(C)CC4)cc3)ncn2)cc1",
    "kinase still bound, per cent of control [%]": 100
  },
  {
    "STRUCTURE_AS_SMILES": "N#CCNC(=O)c1ccc(-c2ccnc(Nc3ccc(N4CCOCC4)cc3)n2)cc1",
    "kinase still bound, per cent of control [%]": 91
  },
  {
    "STRUCTURE_AS_SMILES": "O=C1NC(=O)/C(=C/c2ccc3nccc(-c4ccncc4)c3c2)S1",
    "kinase still bound, per cent of control [%]": 93
  },
  {
    "STRUCTURE_AS_SMILES": "CNC(=O)c1ccc(Nc2cc(Nc3ccccc3S(=O)(=O)C(C)C)c3cc[nH]c3n2)nc1",
    "kinase still bound, per cent of control [%]": 100
  }
]

* * *

Measured kinase still bound, per cent of control by item
Target: ULK1 (human) (UniProt O75385)
Sequence (O75385 whole entry, looked up): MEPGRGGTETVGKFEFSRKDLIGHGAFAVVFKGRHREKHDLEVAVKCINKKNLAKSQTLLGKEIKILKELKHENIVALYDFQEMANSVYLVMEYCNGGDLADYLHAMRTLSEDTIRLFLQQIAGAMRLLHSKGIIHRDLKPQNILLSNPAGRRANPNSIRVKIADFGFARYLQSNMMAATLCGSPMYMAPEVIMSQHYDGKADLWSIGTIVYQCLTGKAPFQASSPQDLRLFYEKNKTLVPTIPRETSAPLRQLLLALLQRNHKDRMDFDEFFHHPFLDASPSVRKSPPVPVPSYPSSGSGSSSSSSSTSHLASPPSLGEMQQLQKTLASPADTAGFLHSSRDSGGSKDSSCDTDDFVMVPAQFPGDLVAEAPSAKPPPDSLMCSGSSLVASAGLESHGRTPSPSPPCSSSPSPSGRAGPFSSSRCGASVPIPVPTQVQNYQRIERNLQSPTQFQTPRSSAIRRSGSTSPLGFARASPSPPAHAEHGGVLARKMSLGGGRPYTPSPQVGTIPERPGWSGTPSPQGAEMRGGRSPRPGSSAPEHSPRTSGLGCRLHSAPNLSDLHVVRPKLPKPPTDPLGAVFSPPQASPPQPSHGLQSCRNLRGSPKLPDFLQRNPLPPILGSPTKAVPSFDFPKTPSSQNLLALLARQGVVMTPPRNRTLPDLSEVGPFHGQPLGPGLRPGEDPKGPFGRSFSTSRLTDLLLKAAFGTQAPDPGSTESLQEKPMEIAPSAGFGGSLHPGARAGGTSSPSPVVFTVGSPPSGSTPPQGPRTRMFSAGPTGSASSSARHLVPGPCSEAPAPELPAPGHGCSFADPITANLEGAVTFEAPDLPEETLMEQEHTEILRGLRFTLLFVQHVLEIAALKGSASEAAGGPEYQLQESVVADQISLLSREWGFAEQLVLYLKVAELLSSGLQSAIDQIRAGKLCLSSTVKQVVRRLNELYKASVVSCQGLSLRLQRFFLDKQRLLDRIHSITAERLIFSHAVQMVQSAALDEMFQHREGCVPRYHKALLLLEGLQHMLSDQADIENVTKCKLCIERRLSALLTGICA
Test: KINOMEscan competition binding
Details: compound 10.0 µM

[
  {
    "STRUCTURE_AS_SMILES": "C[C@@H](Oc1cc(-c2cnn(C3CCNCC3)c2)cnc1N)c1c(Cl)ccc(F)c1Cl",
    "DISPLAY_UNIT": "%",
    "kinase still bound, per cent of control": 1
  },
  {
    "STRUCTURE_AS_SMILES": "C=CC(=O)Nc1ccc(CN(C(=O)Nc2c(Cl)c(OC)cc(OC)c2Cl)c2cc(Nc3ccc(N4CCN(C)CC4)cc3)ncn2)cc1",
    "DISPLAY_UNIT": "%",
    "kinase still bound, per cent of control": 100
  },
  {
    "STRUCTURE_AS_SMILES": "COCC(=O)NC/C=C/c1ccc2ncnc(Nc3ccc(Oc4ccc(C)nc4)c(C)c3)c2c1",
    "DISPLAY_UNIT": "%",
    "kinase still bound, per cent of control": 47
  },
  {
    "STRUCTURE_AS_SMILES": "Cc1n[nH]c2ccc(-c3cncc(OC[C@@H](N)Cc4c[nH]c5ccccc45)c3)cc12",
    "DISPLAY_UNIT": "%",
    "kinase still bound, per cent of control": 22
  },
  {
    "STRUCTURE_AS_SMILES": "O=C(Nc1cccc(Nc2ncc(Br)c(NCCc3cnc[nH]3)n2)c1)N1CCCC1",
    "DISPLAY_UNIT": "%",
    "kinase still bound, per cent of control": 0.05
  }
]

* * *

Target: TYK2 JH2 pseudokinase (human) (UniProt P29597)
Sequence (P29597 whole entry, looked up): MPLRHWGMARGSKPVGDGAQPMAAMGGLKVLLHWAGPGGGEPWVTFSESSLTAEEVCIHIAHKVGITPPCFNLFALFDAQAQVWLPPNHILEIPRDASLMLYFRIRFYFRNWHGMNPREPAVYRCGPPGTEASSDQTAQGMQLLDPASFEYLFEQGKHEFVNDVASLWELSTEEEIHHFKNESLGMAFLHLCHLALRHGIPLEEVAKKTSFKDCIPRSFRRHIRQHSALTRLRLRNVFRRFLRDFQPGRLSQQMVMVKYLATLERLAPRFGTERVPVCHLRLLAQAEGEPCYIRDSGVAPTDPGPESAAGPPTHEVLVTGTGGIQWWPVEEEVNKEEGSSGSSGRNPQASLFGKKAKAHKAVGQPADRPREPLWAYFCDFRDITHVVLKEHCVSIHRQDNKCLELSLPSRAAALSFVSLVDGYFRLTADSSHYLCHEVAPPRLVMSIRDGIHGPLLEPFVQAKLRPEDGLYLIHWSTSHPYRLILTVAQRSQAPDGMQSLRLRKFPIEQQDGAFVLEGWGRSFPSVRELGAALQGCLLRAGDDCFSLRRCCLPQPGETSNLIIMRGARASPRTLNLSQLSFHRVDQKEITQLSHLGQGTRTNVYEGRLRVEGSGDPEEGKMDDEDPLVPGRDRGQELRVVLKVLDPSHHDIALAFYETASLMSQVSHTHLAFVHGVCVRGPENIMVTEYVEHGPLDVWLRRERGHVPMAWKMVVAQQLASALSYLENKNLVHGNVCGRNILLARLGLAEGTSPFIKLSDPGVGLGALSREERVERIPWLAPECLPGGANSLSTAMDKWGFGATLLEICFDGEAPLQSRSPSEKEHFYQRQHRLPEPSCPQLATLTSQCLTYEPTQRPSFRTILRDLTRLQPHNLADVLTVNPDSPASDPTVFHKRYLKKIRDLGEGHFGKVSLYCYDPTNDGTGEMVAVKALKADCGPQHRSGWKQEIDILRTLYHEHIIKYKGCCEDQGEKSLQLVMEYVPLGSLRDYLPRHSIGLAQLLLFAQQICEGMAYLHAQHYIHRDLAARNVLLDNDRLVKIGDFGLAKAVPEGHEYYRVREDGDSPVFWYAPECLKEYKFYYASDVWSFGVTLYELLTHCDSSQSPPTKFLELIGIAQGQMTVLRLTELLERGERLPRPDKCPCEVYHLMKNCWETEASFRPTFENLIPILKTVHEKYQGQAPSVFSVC
Assay: KINOMEscan competition binding
Conditions: compound 10.0 µM
Reported kinase still bound, per cent of control values for the following compounds.
ENDPOINT_LABEL: kinase still bound, per cent of control (%)

[
  {
    "STRUCTURE_AS_SMILES": "CS(=O)(=O)N1CCN(Cc2cc3nc(-c4cccc5[nH]ncc45)nc(N4CCOCC4)c3s2)CC1",
    "DISPLAY_UNIT": "%",
    "RESULT_NUMBER": 100
  },
  {
    "STRUCTURE_AS_SMILES": "O=C1NC(=O)/C(=C/c2ccc3nccc(-c4ccncc4)c3c2)S1",
    "DISPLAY_UNIT": "%",
    "RESULT_NUMBER": 51
  },
  {
    "STRUCTURE_AS_SMILES": "COc1cc2ncnc(-n3nc(-c4ccccn4)nc3N)c2cc1OC",
    "DISPLAY_UNIT": "%",
    "RESULT_NUMBER": 0
  },
  {
    "STRUCTURE_AS_SMILES": "NC(=O)Nc1cc(-c2cccc(F)c2)sc1C(=O)N[C@@H]1CCCNC1",
    "DISPLAY_UNIT": "%",
    "RESULT_NUMBER": 3.2
  },
  {
    "STRUCTURE_AS_SMILES": "CCN1CCN(C(=O)Cc2ccc(Nc3ncc(F)c(Nc4ccc(C(=O)Nc5ccccc5Cl)cc4)n3)cc2)CC1",
    "DISPLAY_UNIT": "%",
    "RESULT_NUMBER": 12
  },
  {
    "STRUCTURE_AS_SMILES": "COc1ccc(N(C(=O)Oc2c(C)cccc2C)c2ccnc(Nc3ccc(N4CCN(C)CC4)cc3)n2)c(OC)c1",
    "DISPLAY_UNIT": "%",
    "RESULT_NUMBER": 100
  },
  {
    "STRUCTURE_AS_SMILES": "CNC(=O)c1ccc(Nc2cc(Nc3ccccc3S(=O)(=O)C(C)C)c3cc[nH]c3n2)nc1",
    "DISPLAY_UNIT": "%",
    "RESULT_NUMBER": 0.95
  }
]
